The measured values listed here are drawn from patent US12509460B2.

- Tested on: MDR1
- Assay: Blood-brain-barrier (BBB) penetration potential via MDCK-MDR1 permeability assay
- Assay Context: dog, MDCK-MDR1, pH 7.4, MDCK-MDR1: Efflux, efflux ratio

>  <Compound>
CN(c1ccc(-c2ccc(-n3nccn3)cc2O)nn1)[C@@H]1C[C@H]2CCC[C@H](N2)[C@@H]1F [Compound 5A]

>  <Assay System>
MDR1

>  <efflux ratio at 120 min, 5 μM>
4

$$$$
>  <Compound>
CN(c1ccc(-c2ccc(-c3cn[nH]c3)cc2O)nn1)[C@H]1C[C@@H]2CC[C@@H](N2)[C@H]1F (single isomer, unassigned) [Compound 42B]

>  <Assay System>
MDR1

>  <efflux ratio at 120 min, 5 μM>
39

$$$$
>  <Compound>
Cc1ccc(-c2ccc(-c3ccc(N(C)[C@@H]4C[C@H]5CC[C@H](N5)[C@@H]4F)nn3)c(O)c2)nn1 (single isomer, unassigned) [Compound 25A]

>  <Assay System>
MDR1

>  <efflux ratio at 120 min, 5 μM>
31

$$$$
>  <Compound>
CN(c1ccc(-c2cc3cccnc3cc2O)nn1)[C@@H]1C[C@H]2CC[C@H](N2)[C@@H]1F [Compound 74A]

>  <Assay System>
MDR1

>  <efflux ratio at 120 min, 5 μM>
14

$$$$
>  <Compound>
CN(c1ccc(-c2cc3c(=O)n(C)ccc3cc2O)nn1)[C@@H]1C[C@H]2CC[C@H](N2)[C@@H]1F [Compound 83A]

>  <Assay System>
MDR1

>  <efflux ratio at 120 min, 5 μM>
44

$$$$
>  <Compound>
CN(c1ccc(-c2ccc(-c3ccn(C)n3)cc2O)nn1)[C@H]1C[C@@H]2CC[C@@H](N2)[C@H]1F (single isomer, unassigned) [Compound 36B]

>  <Assay System>
MDR1

>  <efflux ratio at 120 min, 5 μM>
7

$$$$
>  <Compound>
CN(c1ccc(-c2ccc(-c3cn[nH]c3)cc2O)nn1)[C@@H]1C[C@H]2CC[C@H](N2)[C@@H]1F (single isomer, unassigned) [Compound 42A]

>  <Assay System>
MDR1

>  <efflux ratio at 120 min, 5 μM>
43

$$$$
>  <Compound>
CN(c1ccc(-c2ccc(C3=CCCC3)cc2O)nn1)[C@H]1C[C@@H]2CC[C@@H](N2)[C@H]1F [Compound 34B]

>  <Assay System>
MDR1

>  <efflux ratio at 120 min, 5 μM>
3

$$$$
>  <Compound>
CN(c1ccc(-c2cc(F)c(-c3ccoc(=O)c3)cc2O)nn1)[C@H]1C[C@@H]2CC[C@@H](N2)[C@H]1F [Compound 17B]

>  <Assay System>
MDR1

>  <efflux ratio at 120 min, 5 μM>
19

$$$$
>  <Compound>
CN(c1ccc(-c2cc3ccn(C)c(=O)c3cc2O)nn1)[C@@H]1C[C@H]2CC[C@H](N2)[C@@H]1F [Compound 84A]

>  <Assay System>
MDR1

>  <efflux ratio at 120 min, 5 μM>
58

$$$$
>  <Compound>
Cc1nc2cc(O)c(-c3ccc(N(C)[C@H]4C[C@@H]5CC[C@@H](N5)[C@H]4F)nn3)cc2o1 (single isomer, unassigned) [Compound 40B]

>  <Assay System>
MDR1

>  <efflux ratio at 120 min, 5 μM>
16

$$$$
>  <Compound>
Cc1cc(=O)c2cc(-c3ccc(N(C)[C@H]4C[C@@H]5CC[C@@H](N5)[C@H]4F)nn3)c(O)cc2o1 [Compound 50B]

>  <Assay System>
MDR1

>  <efflux ratio at 120 min, 5 μM>
29

$$$$
>  <Compound>
CN(c1ccc(-c2ccc(-n3ccnn3)cc2O)nn1)[C@H]1C[C@@H]2CCC[C@@H](N2)[C@H]1F [Compound 62B]

>  <Assay System>
MDR1

>  <efflux ratio at 120 min, 5 μM>
19

$$$$
>  <Compound>
CN(c1ccc(-c2ccc(-n3cnc(C#N)c3)cc2O)nn1)[C@H]1C[C@@H]2CC[C@@H](N2)[C@H]1F [Compound 69B]

>  <Assay System>
MDR1

>  <efflux ratio at 120 min, 5 μM>
35

$$$$
>  <Compound>
CN(c1ccc(-c2ccc(-n3ccnc3)cc2O)nn1)[C@H]1C[C@@H]2CCC[C@@H](N2)[C@H]1F [Compound 11B]

>  <Assay System>
MDR1

>  <efflux ratio at 120 min, 5 μM>
23

$$$$

* * *

- System: MDR1 (P-gp)
- Assay: Blood-brain-barrier (BBB) penetration potential via MDCK-MDR1 permeability assay
- Assay Context: dog, MDCK-MDR1, pH 7.4, MDCK-MDR1: Papp A-B, A-B direction

>  <Compound>
CN(C)C(=O)c1cc2cc(O)c(-c3ccc(N(C4CC4)[C@H]4C[C@@H]5CC[C@@H](N5)[C@H]4F)nn3)cc2o1 [Compound 86B]

>  <Papp A→B at 120 min, 5 μM [×10⁻⁶ cm/s]>
0.81

$$$$
>  <Compound>
CN(c1ccc(-c2ccc(C#N)cc2O)nn1)[C@@H]1C[C@H]2CCC[C@H](N2)[C@@H]1F [Compound 39A]

>  <Papp A→B at 120 min, 5 μM [×10⁻⁶ cm/s]>
8.1

$$$$
>  <Compound>
CN(c1ccc(-c2cc3c(=O)n(C)ccc3cc2O)nn1)[C@@H]1C[C@H]2CC[C@H](N2)[C@@H]1F [Compound 83A]

>  <Papp A→B at 120 min, 5 μM [×10⁻⁶ cm/s]>
0.98

$$$$
>  <Compound>
CN(c1ccc(-c2ccc(-n3ccnn3)cc2O)nn1)[C@H]1C[C@@H]2CC[C@@H](N2)[C@H]1F [Compound 61B]

>  <Papp A→B at 120 min, 5 μM [×10⁻⁶ cm/s]>
3.79

$$$$

* * *

- System: MDR1 (P-gp)
- Assay: Blood-brain-barrier (BBB) penetration potential via MDCK-MDR1 permeability assay
- Assay Context: dog, MDCK-MDR1, pH 7.4, MDCK-MDR1: Papp B-A, B-A direction
Returns: string. Value is Criterion met if measured Papp B→A at 120 min, 5 μM is below 40 ×10⁻⁶ cm/s, and Criterion not met if it is greater than or equal to it.

>  <Compound>
CC(=O)N(C)c1ccc(-c2ccc(N(C)[C@H]3C[C@@H]4CC[C@@H](N4)[C@H]3F)nn2)c(O)c1 [Compound 35B]

>  <Assigned Label>
Criterion not met

$$$$
>  <Compound>
CN(c1ccc(-c2ccc(-n3nccn3)cc2O)nn1)[C@H]1C[C@@H]2CCC[C@@H](N2)[C@H]1F [Compound 5B]

>  <Assigned Label>
Criterion met

$$$$
>  <Compound>
COc1cnc(-c2ccc(-c3ccc(N(C)[C@@H]4C[C@H]5CCC[C@H](N5)[C@@H]4F)nn3)c(O)c2)cn1 [Compound 29A]

>  <Assigned Label>
Criterion met

$$$$
>  <Compound>
CN(c1ccc(-c2cc3occc(=O)c3cc2O)nn1)[C@H]1C[C@@H]2CC[C@@H](N2)[C@H]1F [Compound 43B]

>  <Assigned Label>
Criterion met

$$$$
>  <Compound>
CN(c1ccc(-c2ccc(-n3ccnc3)cc2O)nn1)[C@H]1C[C@@H]2CC[C@@H](N2)[C@H]1F [Compound 4B]

>  <Assigned Label>
Criterion not met

$$$$
>  <Compound>
Cn1cnc2cc(-c3ccc(N(C4CC4)[C@H]4C[C@@H]5CC[C@@H](N5)[C@H]4F)nn3)c(O)cc2c1=O [Compound 56B]

>  <Assigned Label>
Criterion not met

$$$$
>  <Compound>
COc1cn(-c2ccc(-c3ccc(N(C)[C@H]4C[C@@H]5CC(F)(F)[C@H](C4)N5)nn3)c(O)c2)cn1 [Compound 19B]

>  <Assigned Label>
Criterion not met

$$$$

* * *

Here the recorded MDCK-MDR1: % Recov B-A is given for each entry.
- Test system: MDR1-MDCK cell monolayers
- Assay: Blood-brain-barrier (BBB) penetration potential via MDCK-MDR1 permeability assay
- Assay Context: B-A direction
Endpoint Name: MDCK-MDR1: % Recov B-A (%)

>  <Compound>
CN(c1ccc(-c2ccc(-c3nnco3)cc2O)nn1)[C@H]1C[C@@H]2CC[C@@H](N2)[C@H]1F [Compound 44B]

>  <Assay System>
MDR1-MDCK cell monolayers

>  <Result Unit>
%

>  <Measured Number>
92

$$$$
>  <Compound>
Cc1cc(=O)c2cc(O)c(-c3ccc(N(C)[C@H]4C[C@@H]5CC[C@@H](N5)[C@H]4F)nn3)cc2o1 [Compound 49B]

>  <Assay System>
MDR1-MDCK cell monolayers

>  <Result Unit>
%

>  <Measured Number>
91

$$$$
>  <Compound>
CN(c1ccc(-c2cc3ccncc3cc2O)nn1)[C@H]1C[C@@H]2CC[C@@H](N2)[C@H]1F (single isomer, unassigned) [Compound 87B]

>  <Assay System>
MDR1-MDCK cell monolayers

>  <Result Unit>
%

>  <Measured Number>
88

$$$$
>  <Compound>
CN(c1ccc(-c2ccc(-c3cnn(C)c3)cc2O)nn1)[C@H]1C[C@@H]2CCC[C@@H](N2)[C@@H]1F [Compound 14B]

>  <Assay System>
MDR1-MDCK cell monolayers

>  <Result Unit>
%

>  <Measured Number>
91

$$$$
>  <Compound>
CN(c1ccc(-c2cc(F)c(-c3ccn(C)c(=O)c3)cc2O)nn1)[C@@H]1C[C@H]2CC[C@H](N2)[C@@H]1F [Compound 1A]

>  <Assay System>
MDR1-MDCK cell monolayers

>  <Result Unit>
%

>  <Measured Number>
88

$$$$
>  <Compound>
CN(c1ccc(-c2cc3c(=O)n(C)ccc3s2)nn1)[C@H]1C[C@@H]2CC[C@@H](N2)[C@H]1F (single isomer, unassigned) [Compound 68B]

>  <Assay System>
MDR1-MDCK cell monolayers

>  <Result Unit>
%

>  <Measured Number>
91

$$$$
